Assay: Mouse liver microsomal intrinsic clearance
Assay type: in vitro ADME
Conditions: mouse, liver microsomes, Intrinsinc Clearance mCLINT
TEST_READOUT: CLint scaled (mL/min/kg)
Write the value in mL/min/kg as a bare number.

SAMPLE_SMILES: O=C(NC(=S)Nc1ccc(-c2nc3ccccc3o2)cc1)c1ccc2ccccc2c1
CLint scaled [mL/min/kg]: 53.4
--
SAMPLE_SMILES: COc1cc2ccccc2cc1C(=O)NC(=O)Nc1ccc(-c2cscn2)cc1
CLint scaled [mL/min/kg]: 43.5
--
SAMPLE_SMILES: COc1cc2ccccc2cc1C(=O)NC(=S)Nc1ccc(-c2nnco2)cc1
CLint scaled [mL/min/kg]: 38.2
--
SAMPLE_SMILES: O=C1c2ccccc2CCN1C(=S)Nc1ccc(-c2nc3ccccc3o2)cc1
CLint scaled [mL/min/kg]: 139
--
SAMPLE_SMILES: COc1cc2ccccc2cc1C(=O)NC(=O)Nc1ccc(-c2nc3ccccc3[nH]2)cc1
CLint scaled [mL/min/kg]: 236
--
SAMPLE_SMILES: COc1cc2ccccc2cc1C(=O)NC(=S)Nc1ccc(-c2ncc[nH]2)cc1
CLint scaled [mL/min/kg]: 57.8

Moving on to the next compound.
Give the reported CLint scaled for this compound. "COc1cc2ccccc2cc1C(=O)NC(=S)Nc1ccc(-c2nccs2)cc1" 37.7
